Provenance of the data: paper PMC5540273

Tested on: p38-delta;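 further: KINOMEscan kinase panel screen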
Assay Setup: concentration: 1 μM, replicates: in singlicate; n = 1
Catalogue of compounds with associated %Inh
Readout: %Inh

| Entry Smiles | Value Measured |
| --- | --- |
| O=C(Nc1n[nH]c2nc(-c3cccc(O)c3)ccc12)C1CC1 | 0% |
| CCn1cnc2c(NCc3ccccc3)ncnc21 | 0% |
| Cc1cc(-c2c(-c3ccc(F)cc3)ncn2CCCN2CCOCC2)nc(N)n1 | 0% |
| COC(=O)Nc1nc2ccc(Oc3ccc(CC(=O)Nc4cc(C(F)(F)F)ccc4F)cc3)cc2[nH]1 | 47% |
| O=C(Nc1n[nH]c2nc(-c3ccccc3)ccc12)C1CC1 | 25% |
